experiment.notes: Cytotoxicity in HepG2 (CellTiterGlo)
Type: cell-based
condition.set: human, HepG2 cells, 24 h after compound addition, 5 nM-100 microM, read-out: HepG2 IC50 (cytotoxic activity)
measured.metric: IC50 at 24 h

{"columns": ["compound", "IC50 at 24 h"],
 "data": [
  ["C=CCOc1c(Br)cc(C2C(C#N)=C(N)Oc3cc4c(cc32)OCO4)cc1OC (centres unmarked) [(41)]", "> 90 µM"],
  ["COc1cc(C2C(C#N)=C(N(C)C)Oc3cc4ccccc4cc32)cc(Br)c1OC (centres unmarked) [(31)]", "> 90 µM"],
  ["COc1cc(C2C(C#N)=C(N)Oc3c2ccc2ccccc32)cc(Br)c1OC (centres unmarked) [(1)]", "> 90 µM"],
  ["C=CCOc1c(Br)cc(C2C(C(=O)OCC)=C(N)Oc3cc4c(cc32)OCO4)cc1OC (centres unmarked) [(42)]", "> 90 µM"],
  ["COc1cc(C2C(C#N)=C(N)Oc3c2ccc2ccc(N)nc32)cc(Br)c1OC (racemic) [(20)]", "37 µM"],
  ["COc1cc(C2C(C#N)=C(N)Oc3c2ccc2ccc(C)nc32)cc(Br)c1OC (centres unmarked) [(16)]", "> 90 µM"],
  ["N#CC1=C(N)Oc2cc3ccccc3cc2C1c1cc(F)c(N2CCCCC2)c(F)c1 (centres unmarked) [(29)]", "42.5 µM"]
]}

Task: Using the record for CCOC(=O)C1=C(N)Oc2cc3c(cc2C1c1cc(F)c(F)c(F)c1)OCO3 (centres unmarked) [(40)] , report its IC50 at 24 h.
Result: > 90 µM
